assay: Pharmacokinetic test of compounds in rats (plasma, LC/MS/MS); type: in vivo, male SD rats; conditions: male, SD, rat, plasma, PO, 10 mg/kg, read-out: Time to peak Tmax
MEASURE: Tmax (min)

compound="O=C(Nc1cnn2ccc(N3CCC[C@@H]3c3cc(F)ccc3F)nc12)N1CC[C@H](O)C1 [LOXO-101, larotrectinib, reference compound]" recorded_result=48

###

test: Pharmacokinetic test of compounds in mice (plasma, LC/MS/MS); assay type: in vivo, male CD-1 mice; conditions: male, CD-1, mouse, plasma, PO, 10 mg/kg, read-out: Peak concentration Cmax
# maps each entry to its Cmax
MEASURE: Cmax

compound="O=C(Nc1cnn2ccc(N3CCC[C@@H]3c3cc(F)ccc3F)nc12)N1CC[C@H](O)C1 [LOXO-101, larotrectinib, reference compound]" measure=Cmax recorded_result="1.55 µM"
compound="O=C1N[C@@H]2COC[C@@H]2Oc2ncc(F)cc2C2COCCN2c2ccn3ncc1c3n2 (stereo partly shown) [WX005A]" measure=Cmax recorded_result="7.12 µM"
compound="O=C1NC2(CC2)COc2ncc(F)cc2C2COCCN2c2ccn3ncc1c3n2 (single isomer, unassigned) [WX001B]" measure=Cmax recorded_result="12.2 µM"
compound="C[C@@H]1CCc2ncc(F)cc2[C@H]2CCCN2c2ccn3ncc(c3n2)C(=O)N1 [LOXO-195, reference compound]" measure=Cmax recorded_result="12.7 µM"
